assay details: Stability of the compound in aqueous solvent assessed as parent compound remaining at 100 uM after 24 hrs in presence of H2O2 by 1H-NMR spectrometric method
Type: physicochemical
study conditions: aqueous solvent with H2O2; read-out: Stability
observation type: remaining at 24 h, 100 µM (%)
Write the value in % as a bare number.

Sample CC1(C)OB(c2ccccc2/C=N/NC(=O)c2ccncc2)OC1(C)C ; remaining at 24 h, 100 µM observed: 25

====

assay details: Stability of the compound in D2O/5% DMSO-d6 assessed as parent compound remaining at 500 uM after 1 hr by 1H-NMR spectroscopic analysis
Format: physicochemical
study conditions: read-out: Stability
observation type: remaining at 1 h, 500 µM (%)
Write the value in % as a bare number.

Sample CC1(C)OB(c2ccccc2/C=N/NC(=O)c2ccncc2)OC1(C)C ; remaining at 1 h, 500 µM observed: 80
